B1: Transitional endoplasmic reticulum ATPase, residues 26 to 106; numbered along this chain, P55072 (parent)
chain: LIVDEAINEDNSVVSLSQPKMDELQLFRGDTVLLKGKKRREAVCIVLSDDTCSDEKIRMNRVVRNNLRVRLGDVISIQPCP

- Variants of: B1
- protocol-notes: abundance fitness (aPCA) (normalised: wild type 0, dead -1); higher = more abundant; growth selection in yeast, the domain comes from the species named
- measurement-context: Homo sapiens
parameter: abundance fitness
Form: value (number only, do not type unit).

Q: Provide measured abundance fitness value, entry: T31N
Ans: -0.023

Q: Provide measured abundance fitness value, entry: T51L
Ans: -0.117

Q: Provide measured abundance fitness value, entry: K35A
Ans: -0.096

Q: Provide measured abundance fitness value, entry: V13L
Ans: -0.095

Q: Provide measured abundance fitness value, entry: E5G
Ans: -0.032

Q: Provide measured abundance fitness value, entry: L1V
Ans: -0.003

Q: Provide measured abundance fitness value, entry: L24V
Ans: -0.429

Q: Provide measured abundance fitness value, entry: V46K
Ans: -0.528

Q: Provide measured abundance fitness value, entry: E5F
Ans: 0.016

Q: Provide measured abundance fitness value, entry: K38Q
Ans: -0.051

Q: Provide measured abundance fitness value, entry: R40V
Ans: 0.027

Q: Provide measured abundance fitness value, entry: D50A
Ans: -0.023

Q: Provide measured abundance fitness value, entry: Q25P
Ans: -1

Q: Provide measured abundance fitness value, entry: I45K
Ans: -0.002

Q: Provide measured abundance fitness value, entry: D54C
Ans: -0.089

Q: Provide measured abundance fitness value, entry: I57N
Ans: -0.716

Q: Provide measured abundance fitness value, entry: Q25L
Ans: -0.149

Q: Provide measured abundance fitness value, entry: E5M
Ans: 0.042

Q: Provide measured abundance fitness value, entry: P81S
Ans: -0.106

Q: Provide measured abundance fitness value, entry: N65Y
Ans: -0.14

Q: Provide measured abundance fitness value, entry: N8G
Ans: 0.022

Q: Provide measured abundance fitness value, entry: P81V
Ans: -0.153

Q: Provide measured abundance fitness value, entry: D54W
Ans: -0.289

Q: Provide measured abundance fitness value, entry: K20M
Ans: 0.04

Q: Provide measured abundance fitness value, entry: V13R
Ans: -0.113

Q: Provide measured abundance fitness value, entry: R68C
Ans: -0.114

Q: Provide measured abundance fitness value, entry: L26M
Ans: -0.047

Q: Provide measured abundance fitness value, entry: Q78G
Ans: -0.069

Q: Provide measured abundance fitness value, entry: Q78I
Ans: -0.023

Q: Provide measured abundance fitness value, entry: K20R
Ans: -0.019

Q: Provide measured abundance fitness value, entry: I7R
Ans: -0.042

Q: Provide measured abundance fitness value, entry: Q18V
Ans: 0.001

Q: Provide measured abundance fitness value, entry: P19K
Ans: -0.252

Q: Provide measured abundance fitness value, entry: N8P
Ans: -0.096

Q: Provide measured abundance fitness value, entry: M59A
Ans: -0.258

Q: Provide measured abundance fitness value, entry: Q78H
Ans: -0.025

Q: Provide measured abundance fitness value, entry: E23L
Ans: -0.148

Q: Provide measured abundance fitness value, entry: T51M
Ans: -0.131

Q: Provide measured abundance fitness value, entry: V62K
Ans: 0.003
